The entries below come with measured Plant response rating, Ryegrass, Italian values attached.
Test system: Ryegrass, Italian (Italian ryegrass, Lolium multiflorum)
Assay: Test A preemergence, Ryegrass, Italian
Assay type: in vivo
Conditions: Preemergence, 31 g ai/ha; visual injury, 0 to 100 scale (0 no effect, 100 complete control), approx. 10 days

>  <molecule>
CCC(=O)OCN(c1cc(C2=NOC3(CCCC3)C2)c(C)cc1C)S(=O)(=O)C(F)(F)F

>  <experimental system>
Ryegrass, Italian (Italian ryegrass, Lolium multiflorum)

>  <Plant response rating, Ryegrass, Italian>
70

$$$$
>  <molecule>
Cc1cc(C)c(N(COC(=O)C2CCCC2)S(=O)(=O)C(F)(F)F)cc1C1=NOC2(CCCC2)C1

>  <experimental system>
Ryegrass, Italian (Italian ryegrass, Lolium multiflorum)

>  <Plant response rating, Ryegrass, Italian>
40

$$$$
>  <molecule>
Cc1cc(C)c(C2=NOC3(C2)CC(C)CC(C)C3)cc1NS(=O)(=O)C(F)(F)F (single isomer, unassigned)

>  <experimental system>
Ryegrass, Italian (Italian ryegrass, Lolium multiflorum)

>  <Plant response rating, Ryegrass, Italian>
0

$$$$
>  <molecule>
CSC1CCCN(C(=O)c2cc(NS(=O)(=O)C(F)(F)F)c(C)cc2C)C1 (centres unmarked)

>  <experimental system>
Ryegrass, Italian (Italian ryegrass, Lolium multiflorum)

>  <Plant response rating, Ryegrass, Italian>
20

$$$$
>  <molecule>
CCOC1CCCN(C(=O)c2cc(NS(=O)(=O)C(F)(F)F)c(C)cc2C)C1 (centres unmarked)

>  <experimental system>
Ryegrass, Italian (Italian ryegrass, Lolium multiflorum)

>  <Plant response rating, Ryegrass, Italian>
20

$$$$
>  <molecule>
COC(=O)N(c1cc(C(=O)N2CCCC(OC)C2)c(C)cc1C)S(=O)(=O)C(F)(F)F (centres unmarked)

>  <experimental system>
Ryegrass, Italian (Italian ryegrass, Lolium multiflorum)

>  <Plant response rating, Ryegrass, Italian>
70

$$$$
>  <molecule>
COC1CCCN(C(=O)c2cc(N(C(C)=O)S(=O)(=O)C(F)(F)F)c(C)cc2C)C1 (centres unmarked)

>  <experimental system>
Ryegrass, Italian (Italian ryegrass, Lolium multiflorum)

>  <Plant response rating, Ryegrass, Italian>
0

$$$$
>  <molecule>
COC1CCN(C(=O)c2cc(NS(=O)(=O)C(F)(F)F)c(C)cc2C)C1 (centres unmarked)

>  <experimental system>
Ryegrass, Italian (Italian ryegrass, Lolium multiflorum)

>  <Plant response rating, Ryegrass, Italian>
0

$$$$

---

System: corn (Zea mays)
Assay: Test A1 preemergence, corn
Type: in vivo
Details: 125 g ai/ha, 0 to 100 scale, 0 no effect, 100 complete control
Description: […]
value kind: Plant response rating, Corn

>  <compound>
Cc1cc(C)c(N(COC(=O)C(C)(C)C)S(=O)(=O)C(F)(F)F)cc1C(=O)N1CCC(c2ccccc2)CC1 [Compound 364]

>  <value kind>
Plant response rating, Corn

>  <measured number>
0

$$$$
>  <compound>
C#CCN(C)C(=O)c1cc(N(COC(=O)C(C)(C)C)S(=O)(=O)C(F)(F)F)c(C)c(C)c1C [Compound 371]

>  <value kind>
Plant response rating, Corn

>  <measured number>
90

$$$$
>  <compound>
Cc1cc(C)c(C2=NOC3OCCCC23)cc1NS(=O)(=O)C(F)(F)F (centres unmarked) [Compound 372]

>  <value kind>
Plant response rating, Corn

>  <measured number>
10

$$$$
>  <compound>
Cc1c(NS(=O)(=O)C(F)(F)F)cc(C(=O)N2CCC(F)CC2)c(C)c1C [Compound 358]

>  <value kind>
Plant response rating, Corn

>  <measured number>
50

$$$$
>  <compound>
Cc1c(NS(=O)(=O)C(F)(F)F)cc(C(=O)N(C)C)c(C)c1Cl [Compound 287]

>  <value kind>
Plant response rating, Corn

>  <measured number>
0

$$$$
